settings: in acetone, 288.15 K
Observable: solubility (mole fraction)
Please reply with the number alone, leaving off any unit.

Given the compound Cn1cc[nH]c1=S , what is its reported solubility (mole fraction)?
0.0623

====

settings: in ethanol, 278.15 K
Observable: solubility (mole fraction)
Please reply with the number alone, leaving off any unit.

Given the compound Cn1cc[nH]c1=S , what is its reported solubility (mole fraction)?
0.0275

====

settings: in 1,4-dioxane, 288.15 K
Observable: solubility (mole fraction)
Please reply with the number alone, leaving off any unit.

Given the compound Cn1cc[nH]c1=S , what is its reported solubility (mole fraction)?
0.0616

====

details: in acetonitrile, 278.15 K
Observable: solubility (mole fraction)
Please reply with the number alone, leaving off any unit.

Given the compound Cn1cc[nH]c1=S , what is its reported solubility (mole fraction)?
0.016

====

details: in ethyl acetate, 313.15 K
Observable: solubility (mole fraction)
Please reply with the number alone, leaving off any unit.

Given the molecule Cn1cc[nH]c1=S , what is its reported solubility (mole fraction)?
0.0339

====

conditions: in acetone, 298.15 K
Observable: solubility (mole fraction)
Please reply with the number alone, leaving off any unit.

Given the molecule Cn1cc[nH]c1=S , what is its reported solubility (mole fraction)?
0.0889

====

conditions: in ethyl acetate, 283.15 K
Observable: solubility (mole fraction)
Please reply with the number alone, leaving off any unit.

Given the compound Cn1cc[nH]c1=S , what is its reported solubility (mole fraction)?
0.018

====

settings: in methyl acetate, 303.15 K
Observable: solubility (mole fraction)
Please reply with the number alone, leaving off any unit.

Given the molecule Cn1cc[nH]c1=S , what is its reported solubility (mole fraction)?
0.0593

====

settings: in n-butanol, 323.15 K
Observable: solubility (mole fraction)
Please reply with the number alone, leaving off any unit.

Given the compound Cn1cc[nH]c1=S , what is its reported solubility (mole fraction)?
0.153

====

conditions: in isobutanol, 303.15 K
Observable: solubility (mole fraction)

Given the compound Cn1cc[nH]c1=S , what is its reported solubility (mole fraction)?
0.0542

====

settings: in methanol, 323.15 K
Observable: solubility (mole fraction)

Given the compound Cn1cc[nH]c1=S , what is its reported solubility (mole fraction)?
0.283

====

conditions: in isobutanol, 288.15 K
Observable: solubility (mole fraction)
Please reply with the number alone, leaving off any unit.

Given the compound Cn1cc[nH]c1=S , what is its reported solubility (mole fraction)?
0.0289

====

conditions: in methyl acetate, 308.15 K
Observable: solubility (mole fraction)
Please reply with the number alone, leaving off any unit.

Given the molecule Cn1cc[nH]c1=S , what is its reported solubility (mole fraction)?
0.07

====

conditions: in methanol, 278.15 K
Observable: solubility (mole fraction)
Please reply with the number alone, leaving off any unit.

Given the compound Cn1cc[nH]c1=S , what is its reported solubility (mole fraction)?
0.06

====

conditions: in ethanol, 288.15 K
Observable: solubility (mole fraction)
Please reply with the number alone, leaving off any unit.

Given the compound Cn1cc[nH]c1=S , what is its reported solubility (mole fraction)?
0.0417

====

conditions: in acetonitrile, 323.15 K
Observable: solubility (mole fraction)
Please reply with the number alone, leaving off any unit.

Given the compound Cn1cc[nH]c1=S , what is its reported solubility (mole fraction)?
0.121

====

conditions: in THF, 313.15 K
Observable: solubility (mole fraction)

Given the compound Cn1cc[nH]c1=S , what is its reported solubility (mole fraction)?
0.13

====

conditions: in n-propanol, 293.15 K
Observable: solubility (mole fraction)

Given the molecule Cn1cc[nH]c1=S , what is its reported solubility (mole fraction)?
0.0468

Origin of values: BigSolDB 2.1
